# measurement-target: Topoisomerase IV (Staphylococcus aureus, UniProt P0C1S7+P0C1U9)
# measurement-protocol: Inhibition of wild type Staphylococcus aureus ATCC 29213 topoisomerase-4 subunit 2GrlA/2GrlB assessed as pBR322 relaxation after 1 hr
Each entry below carries its reported pIC50.
A value of pIC50 is the negative decimal logarithm of a concentration given in moles per litre.

>>> numeric_result("COc1ccc2nccc([C@@H](O)[C@H](O)[C@@H]3CC[C@@H](NCc4ccc5c(n4)NC(=O)CS5)CO3)c2n1")
6.30
>>> numeric_result("COc1ccc2nccc(CC[C@@H]3CC[C@@H](NCc4ccc5c(n4)NC(=O)CS5)CO3)c2n1")
6.30
>>> numeric_result("COc1ccc2nccc(/C=C/[C@@H]3CC[C@@H](NCc4ccc5c(n4)NC(=O)CS5)CO3)c2n1")
5.70
>>> numeric_result("COc1ccc2ncc(F)c([C@@H](O)CC[C@@H]3CCN(CCSc4cccs4)C[C@@H]3C(=O)O)c2c1")
3.89
>>> numeric_result("COc1ccc2ncc(F)c([C@@H](O)[C@H](O)[C@@H]3CC[C@@H](NCc4ccc5c(n4)NC(=O)CS5)CO3)c2n1")
6.30
>>> numeric_result("COc1cnc2cccc([C@@H](O)[C@H](O)[C@@H]3CC[C@@H](NCc4ccc5c(n4)NC(=O)CS5)CO3)c2c1")
6.30

input: Specify reported pIC50 for the compound shown: COc1ccc2ncc(F)c([C@@H](O)[C@H](O)[C@@H]3CC[C@@H](NCc4cc5c(cn4)OCCS5)CO3)c2n1
output: 5.10

input: Tell me pIC50 reported for COc1ccc2nccc(NC(=O)[C@H]3CC[C@H](NCc4ccc5c(n4)NC(=O)CS5)CC3)c2n1
output: 6.90

input: Please report the measured pIC50 for N#Cc1ccc2ccc(=O)n(CCN3CC[C@H](NCc4cc5c(cn4)OCCO5)[C@H](F)C3)c2c1
output: 5.10

input: Using the record for COc1ccc2nccc(OC[C@@H]3CC[C@@H](NCc4ccc5c(n4)NC(=O)CS5)CO3)c2n1 , state its measured pIC50.
output: 5.10

input: Provide pIC50 value for the following compound: COc1cnc2ccc(F)c([C@@H](O)[C@H](O)[C@@H]3CC[C@@H](NCc4cc5c(cn4)OCCS5)CO3)c2n1
output: 5.10

input: Give the measured pIC50 for COc1ccc2cccc([C@@H](O)[C@H](O)[C@@H]3CC[C@@H](NCc4ccc5c(n4)NC(=O)CS5)CO3)c2n1
output: 6.30

input: Input COc1ccc2nccc([C@@H](O)[C@H](O)[C@@H]3CC[C@@H](NCc4cc5c(cn4)OCCO5)CO3)c2n1 , output reported pIC50.
output: 5.10

input: Complete the entry with pIC50 for COc1cnc2cccc([C@@H](O)[C@H](O)[C@@H]3CC[C@@H](NCc4ccc5c(n4)NC(=O)CS5)CO3)c2n1
output: 5.70

input: State its pIC50: COc1ccc2nccc(NC(=O)[C@@H]3CC[C@@H](NCc4ccc5c(n4)NC(=O)CS5)CO3)c2n1
output: 5.70

input: # return recorded pIC50 for input COc1ccc2nccc([C@H](O)[C@@H](O)[C@H]3CC[C@H](NCc4ccc5c(n4)NC(=O)CS5)CO3)c2n1
output: 5.10

input: Give pIC50 for COc1ccc2ncc(F)c([C@@H](O)[C@H](O)[C@@H]3CC[C@@H](NCc4cc5c(cn4)OCCO5)CO3)c2n1
output: 5.10

input: Please give the documented pIC50 of COc1cnc2ccc(F)c([C@@H](O)[C@H](O)[C@@H]3CC[C@@H](NCc4cc5c(cn4)OCCO5)CO3)c2n1
output: 5.10

input: Identify the reported pIC50 for the following entry. COc1ccc2ncc(F)c([C@@H](O)[C@H](O)[C@@H]3CC[C@@H](NCc4ccc5c(n4)NC(=O)CS5)CO3)c2c1
output: 5.10

input: Give recorded pIC50. COc1ccc2ncc(F)c([C@@H](O)[C@H](O)[C@@H]3CC[C@@H](NCc4cc5c(nn4)OCCS5)CO3)c2n1
output: 5.10

input: State its pIC50: COc1ccc2nccc([C@@H](O)[C@H](O)[C@@H]3CC[C@@H](NCc4ccc5c(n4)NC(=O)CS5)CO3)c2c1
output: 5.10
